Target: T1, human EphA3 (Homo sapiens, UniProt P29320)
T1 construct: a protein of the extracellular region of each human Eph receptor fused with the SEAP protein and the His tag; made in house; host or cells: Expi293F cells (culture supernatant)
T1 sequence (P29320 21-541 limits assumed): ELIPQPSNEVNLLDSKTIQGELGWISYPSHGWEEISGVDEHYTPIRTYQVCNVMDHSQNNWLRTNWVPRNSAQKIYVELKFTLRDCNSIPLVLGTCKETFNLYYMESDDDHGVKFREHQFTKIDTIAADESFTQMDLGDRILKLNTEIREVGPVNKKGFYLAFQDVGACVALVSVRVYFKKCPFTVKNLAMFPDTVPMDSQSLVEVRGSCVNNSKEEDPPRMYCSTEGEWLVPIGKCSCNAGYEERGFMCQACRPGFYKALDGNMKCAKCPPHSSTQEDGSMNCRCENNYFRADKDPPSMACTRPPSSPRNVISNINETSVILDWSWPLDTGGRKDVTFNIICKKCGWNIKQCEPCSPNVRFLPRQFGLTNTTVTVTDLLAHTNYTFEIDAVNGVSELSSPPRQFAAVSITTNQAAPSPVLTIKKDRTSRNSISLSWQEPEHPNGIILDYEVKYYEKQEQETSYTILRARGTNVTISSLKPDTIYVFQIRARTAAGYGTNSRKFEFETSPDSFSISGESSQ
Experiment: Selectivity ELISA of humanized antibodies for human Eph receptor
Type: binding
Settings: coated protein 1 nM
This listing pairs molecules with measured hEphA3-SEAP-: absorbance at 450 nm, percentage with respect to hEphA4-SEAP-His as 100%.
metric_name: hEphA3-SEAP-: absorbance at 450 nm, percentage with respect to hEphA4-SEAP-His as 100% (%)

{"columns": ["molecule", "experimental_value"],
 "data": [
  ["157 (antibody, V domains shown, synthetic humanized antibody heavy chain variable region sequence; synthetic humanized antibody light chain variable region sequence) VH: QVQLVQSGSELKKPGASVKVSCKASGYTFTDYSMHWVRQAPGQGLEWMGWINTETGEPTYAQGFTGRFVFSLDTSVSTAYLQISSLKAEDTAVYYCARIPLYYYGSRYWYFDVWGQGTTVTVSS VL: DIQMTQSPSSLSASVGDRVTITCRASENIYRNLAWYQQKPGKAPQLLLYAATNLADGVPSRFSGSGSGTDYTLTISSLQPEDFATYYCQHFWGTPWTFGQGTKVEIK", 6.4],
  ["144 (antibody, V domains shown, synthetic humanized antibody heavy chain variable region sequence; synthetic humanized antibody light chain variable region sequence) VH: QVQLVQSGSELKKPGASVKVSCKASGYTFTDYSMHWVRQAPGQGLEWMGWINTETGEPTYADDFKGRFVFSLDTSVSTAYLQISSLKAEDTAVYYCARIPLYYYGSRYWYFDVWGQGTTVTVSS VL: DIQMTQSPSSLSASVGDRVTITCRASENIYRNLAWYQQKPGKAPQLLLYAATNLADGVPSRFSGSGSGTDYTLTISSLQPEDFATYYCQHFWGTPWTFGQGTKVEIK", 5.7],
  ["142 (antibody, V domains shown, synthetic humanized antibody heavy chain variable region sequence; synthetic humanized antibody light chain variable region sequence) VH: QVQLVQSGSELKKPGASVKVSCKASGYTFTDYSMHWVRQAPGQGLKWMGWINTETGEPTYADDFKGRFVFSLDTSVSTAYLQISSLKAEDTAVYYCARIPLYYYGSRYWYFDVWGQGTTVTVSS VL: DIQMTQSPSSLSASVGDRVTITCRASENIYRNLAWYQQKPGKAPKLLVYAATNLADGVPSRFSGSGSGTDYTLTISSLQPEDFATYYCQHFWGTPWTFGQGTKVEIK", 5.5],
  ["67 (antibody, V domains shown, synthetic humanized antibody heavy chain variable region sequence; synthetic humanized antibody light chain variable region sequence) VH: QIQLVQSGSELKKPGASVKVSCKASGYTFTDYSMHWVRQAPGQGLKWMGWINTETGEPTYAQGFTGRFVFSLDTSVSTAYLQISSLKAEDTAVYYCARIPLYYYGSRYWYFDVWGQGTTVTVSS VL: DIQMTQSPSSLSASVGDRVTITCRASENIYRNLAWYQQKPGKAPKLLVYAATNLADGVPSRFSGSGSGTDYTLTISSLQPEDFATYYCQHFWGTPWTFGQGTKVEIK", 4.8]
]}
